Target: Hypoxia-inducible factor 1-alpha (Homo sapiens)
Sequence (Q16665 whole entry): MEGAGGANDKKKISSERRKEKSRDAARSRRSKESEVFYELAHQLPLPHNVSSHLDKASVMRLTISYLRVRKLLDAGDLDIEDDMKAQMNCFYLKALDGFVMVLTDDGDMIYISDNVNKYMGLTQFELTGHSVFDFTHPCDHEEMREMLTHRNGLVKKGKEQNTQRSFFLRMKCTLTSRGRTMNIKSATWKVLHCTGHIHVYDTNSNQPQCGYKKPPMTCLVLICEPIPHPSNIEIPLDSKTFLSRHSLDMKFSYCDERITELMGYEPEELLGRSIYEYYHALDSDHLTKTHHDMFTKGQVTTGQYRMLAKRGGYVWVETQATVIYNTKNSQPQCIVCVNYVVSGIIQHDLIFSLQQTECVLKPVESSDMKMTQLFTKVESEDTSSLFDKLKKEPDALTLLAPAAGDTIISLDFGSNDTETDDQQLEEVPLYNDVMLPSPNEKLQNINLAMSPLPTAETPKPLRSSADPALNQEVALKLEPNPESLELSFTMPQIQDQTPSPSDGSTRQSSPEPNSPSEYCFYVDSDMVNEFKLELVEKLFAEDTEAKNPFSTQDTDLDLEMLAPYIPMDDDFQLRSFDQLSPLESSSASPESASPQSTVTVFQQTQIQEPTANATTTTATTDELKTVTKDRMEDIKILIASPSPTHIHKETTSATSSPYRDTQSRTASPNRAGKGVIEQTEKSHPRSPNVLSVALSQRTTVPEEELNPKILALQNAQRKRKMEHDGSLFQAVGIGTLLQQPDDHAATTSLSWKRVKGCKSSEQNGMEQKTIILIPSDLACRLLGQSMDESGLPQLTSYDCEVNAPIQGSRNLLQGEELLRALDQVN
Experiment: Inhibition of hypoxia-induced HIF1alpha activation in human ME180 cells by HRE3-Bla-[…] reporter gene assay
Format: cell-based, ME-180
Conditions: read-out: IC50
MEASURED_QUANTITY: pIC50
# reply with the number alone; pIC50 is -log10 of concentration in mol/L

# query: pIC50 of entry `CCOc1ccccc1-n1c(CN2CCOCC2)nc2ccccc2c1=O`
4.56

Please report the recorded pIC50 for `COc1ccccc1-n1c(CN2CCN(C(=O)c3ccco3)CC2)nc2ccccc2c1=O` .
5.48

Consider the compound `COc1ccc([N+](=O)[O-])cc1-n1c(CN2CCNCC2)nc2ccccc2c1=O` and give its measured pIC50.
5.38

So what's the measured pIC50 for this one? `O=c1c2ccccc2nc(CN2CCNCC2)n1-c1ccccc1OCc1ccccc1`
4.64

Quick one: pIC50 for `CCOc1ccccc1-n1c(CN2CCN(C)CC2)nc2ccccc2c1=O` ?
6.09

Return reported pIC50; argument: `CCOc1ccccc1-n1c(CN2CCN(C(C)=O)CC2)nc2ccccc2c1=O`
6.33

Endpoint output: pIC50 of `CCOc1ccccc1-n1c(CN2CCN(C(=O)c3ccco3)CC2)nc2cccc(C)c2c1=O` . Value?
5.92

Item under review: `CCOc1ccccc1-n1c(CN2CCCNCC2)nc2ccccc2c1=O` . Reported pIC50?
6.80

Value lookup for pIC50; key = `CC(C)COc1ccccc1-n1c(CN2CCNCC2)nc2ccccc2c1=O`
5.21

Data request, read-out pIC50, for `CCOc1ccccc1-n1c(CN2CCN(Cc3ccccc3)CC2)nc2ccccc2c1=O`
4.56

State the recorded pIC50 for this entry: `CCOc1ccccc1-n1c(CN2CCNCC2)nc2ccccc2c1=O`
7.05

What value of pIC50 has been reported for the following compound? `CCOc1ccccc1-n1c(CN2CCN(C(=O)c3ccco3)CC2)nc2ccccc2c1=O`
6.37

Dear colleague, I am looking for the recorded pIC50 of the following compound: `COc1ccc(C(F)(F)F)cc1-n1c(CN2CCNCC2)nc2ccccc2c1=O`
6.70

Can you look up the measured pIC50 of `CCOc1ccccc1-n1c(CC2CCN(C(=O)c3ccco3)CC2)nc2ccccc2c1=O` for me?
4.56

Look at this compound and give its reported pIC50. `CCOC(=O)N1CCN(Cc2nc3ccccc3c(=O)n2-c2ccccc2OCC)CC1`
5.03

Any idea what pIC50 was measured for `CCSc1ccccc1-n1c(CN2CCNCC2)nc2ccccc2c1=O` ?
5.46

Can you look up the measured pIC50 of `CCNc1ccccc1-n1c(CN2CCNCC2)nc2ccccc2c1=O` for me?
5.39

Reported pIC50 for `CCOc1ccccc1-n1c(CN2CCN(C(=O)c3ccccc3)CC2)nc2ccccc2c1=O` : what is it?
5.77
